test: in vitro; conditions: rhesus monkey, liver microsomes
Description: Metabolic stability in monkey liver microsomes assessed as half life at 5 uM
readout label: half-life at 5 µM (min)
Answer format: numeric, min implied, no suffix.

Input line: Reported half-life at 5 µM for Cc1cc(CN2C(=O)C(C3=NS(=O)(=O)c4cc(NS(C)(=O)=O)ccc4N3)=C(O)[C@@H]3[C@H]4CC[C@H](C4)[C@@H]32)ccc1F : what is it?
Output line: 49

----------
assay: physchem; conditions: aqueous medium, pH 7.5
Description: Aqueous solubility at pH 7.5
readout label: solubility

Some compounds with recorded solubility:
CS(=O)(=O)Nc1ccc2c(c1)S(=O)(=O)NC(C1=C(O)[C@@H]3CCC[C@@H]3N(Cc3ccc(F)cc3)C1=O)=N2 ... > 100 µM
CS(=O)(=O)Nc1ccc2c(c1)S(=O)(=O)N=C(C1=C(O)[C@@H]3[C@@H]([C@H]4CC[C@@H]3O4)N(Cc3ccc(F)cc3)C1=O)N2 ... > 100 µM

Now let's try a different one.
Input line: Form field: reported solubility of CS(=O)(=O)Nc1ccc2c(c1)S(=O)(=O)N=C(C1=C(O)[C@@H]3[C@H]4CC[C@H](C4)[C@@H]3N(Cc3ccc(F)c(F)c3)C1=O)N2
Output line: > 100 µM

----------
experiment: in vitro; conditions: rhesus monkey, microsomes, Stability
Description: Metabolic stability in monkey liver microsomes assessed as compound remaining after 60 mins at 5 uM
readout label: remaining at 1 h, 5 µM (%)

Example cases with answers are listed next.
CS(=O)(=O)Nc1ccc2c(c1)S(=O)(=O)N=C(C1=C(O)[C@H]3[C@H]4CC[C@H](C4)[C@H]3N(Cc3ccc(F)cc3)C1=O)N2 ... 95
CS(=O)(=O)Nc1ccc2c(c1)S(=O)(=O)N=C(C1=C(O)[C@@H]3[C@H]4CC[C@H](C4)[C@@H]3N(Cc3ccc(F)cc3)C1=O)N2 [SETROBUVIR] ... 98
CS(=O)(=O)Nc1ccc2c(c1)S(=O)(=O)N=C(C1=C(O)C3C4CCC(C4)C3N(Cc3ccc(F)cc3)C1=O)N2 (racemic; 2a) ... 91

(A) CS(=O)(=O)Nc1ccc2c(c1)S(=O)(=O)NC(C1=C(O)[C@@H]3CCC[C@@H]3N(Cc3ccc(F)cc3)C1=O)=N2
(B) CS(=O)(=O)Nc1ccc2c(c1)S(=O)(=O)N=C(C1=C(O)[C@H]3[C@@H]4CC[C@@H](C4)[C@H]3N(Cc3ccc(F)cc3)C1=O)N2
Input line: Please tell me which of the two, A or B , has the higher reported remaining at 1 h, 5 µM value. Please respond with the label that marks your chosen entry.
Output line: A
(A: 100%, B: 58%)

----------
experiment: in vitro; settings: rhesus monkey, liver microsomes, Stability
readout label: remaining at 1 h, 5 µM (%)
Kindly answer with a numeric value in %, unit omitted.

Input line: # input compound: CS(=O)(=O)Nc1ccc2c(c1)S(=O)(=O)N=C(C1=C(O)[C@@H]3[C@@H]([C@H]4CC[C@@H]3O4)N(Cc3ccc(F)cc3)C1=O)N2 ; wanted: its remaining at 1 h, 5 µM
Output line: 100

----------
assay: in vitro; settings: human, microsomes, t1/2
readout label: half-life at 1 µM (min)

Recorded results for 2 molecules are shown here.
CS(=O)(=O)Nc1ccc2c(c1)S(=O)(=O)N=C(C1=C(O)[C@H]3[C@@H]4CC[C@@H](C4)[C@H]3N(Cc3ccc(F)cc3)C1=O)N2 ... 20
CS(=O)(=O)Nc1ccc2c(c1)S(=O)(=O)N=C(C1=C(O)C3C4CCC(C4)C3N(Cc3ccc(F)cc3)C1=O)N2 (racemic; 2a) ... 34

(A) CC(C)(C)CCN1C(=O)C(C2=NS(=O)(=O)c3cc(NS(C)(=O)=O)ccc3N2)=C(O)[C@@H]2[C@@H]3CC[C@@H](C3)[C@@H]21
(B) CS(=O)(=O)Nc1ccc2c(c1)S(=O)(=O)N=C(C1=C(O)[C@@H]3C4CCC(CC4)[C@@H]3N(CC3CCCCC3)C1=O)N2
Input line: Given A and given B , which shows the smaller recorded half-life at 1 µM? Please reply using the label of the selected record.
Output line: A
(A: 3 min, B: 50 min)
